System: Phosphorylase b kinase gamma catalytic chain, liver/testis isoform (Homo sapiens); also: in the data inactive means no Kd found up to 30 µM
Sequence (P15735 whole entry, canonical isoform): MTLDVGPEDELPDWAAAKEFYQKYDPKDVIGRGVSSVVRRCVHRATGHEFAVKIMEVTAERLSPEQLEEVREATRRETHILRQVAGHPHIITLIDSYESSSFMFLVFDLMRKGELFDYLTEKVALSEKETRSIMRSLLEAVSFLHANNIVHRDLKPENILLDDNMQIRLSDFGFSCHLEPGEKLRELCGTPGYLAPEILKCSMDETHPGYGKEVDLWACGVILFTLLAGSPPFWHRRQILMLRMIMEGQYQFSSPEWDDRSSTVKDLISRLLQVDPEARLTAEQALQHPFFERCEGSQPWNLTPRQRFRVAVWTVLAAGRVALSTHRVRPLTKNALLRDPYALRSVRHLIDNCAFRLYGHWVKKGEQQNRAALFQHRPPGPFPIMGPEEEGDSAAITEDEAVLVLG
Activity calls are given as the source filed them.
Entry note: the call must match one of active, inactive

C=CC(=O)Nc1cc(Nc2nccc(-c3cn(C)c4ccccc34)n2)c(OC)cc1N(C)CCN(C)C	inactive
CN1CCN(c2nc(C3=C(c4c[nH]c5ccccc45)C(=O)NC3=O)c3ccccc3n2)CC1	inactive
O=C(NC[C@H](O)CO)c1ccncc1Nc1ccc(I)cc1F	inactive
CNC(=O)c1cccc(-c2ccc3c(N4CCOC[C@@H]4C)nc(N4CCOC[C@@H]4C)nc3n2)c1	inactive
O=C(O)c1ccc2c(c1)nc(Nc1cccc(Cl)c1)c1ccncc12	active

Please let me know the test result on file for Cc1cc(Nc2nc(N[C@@H](C)c3ncc(F)cn3)ncc2Cl)n[nH]1 .
inactive

Similarly, C#Cc1cccc(Nc2ncnc3cc4c(cc23)OCCOCCOCCO4)c1 ?
inactive

Same read-out for N#CCNC(=O)c1ccc(-c2ccnc(Nc3ccc(N4CCOCC4)cc3)n2)cc1 ?
inactive
